Assay notes: Free fraction by equilibrium dialysis, human plasma and homogenized human skin
Format: in vitro ADME
Applied conditions: homogenized skin, read-out: Mean free fraction in homogenized human skin

Compound: CCOc1c([C@H](C)n2nc(C)c3c(N)ncnc32)cc(Cl)c(F)c1[C@@H]1CNC(=O)C1 [Compound A]
fraction unbound: 0.33
